The reader will find reported Ki values listed item by item below.
- TESTED_ON: α2A adrenergic receptor (Homo sapiens, UniProt P08913)
- Construct: Eurofins Cerep (contract screening)
- Sequence (P08913 1-465): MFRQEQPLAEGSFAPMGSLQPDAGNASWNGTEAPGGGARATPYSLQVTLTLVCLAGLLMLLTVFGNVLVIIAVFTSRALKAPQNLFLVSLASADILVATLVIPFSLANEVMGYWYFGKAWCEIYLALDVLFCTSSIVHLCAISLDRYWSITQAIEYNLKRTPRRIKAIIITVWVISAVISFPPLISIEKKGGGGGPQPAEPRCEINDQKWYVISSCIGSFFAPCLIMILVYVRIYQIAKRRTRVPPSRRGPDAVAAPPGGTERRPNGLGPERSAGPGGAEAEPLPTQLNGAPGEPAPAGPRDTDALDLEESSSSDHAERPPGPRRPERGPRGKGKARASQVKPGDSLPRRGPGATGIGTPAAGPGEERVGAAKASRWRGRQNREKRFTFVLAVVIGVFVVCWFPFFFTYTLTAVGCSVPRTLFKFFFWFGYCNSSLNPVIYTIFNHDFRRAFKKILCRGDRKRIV
- ASSAY_PROTOCOL: Radioligand binding assay (Eurofins Cerep), [3H]RX 821002 displacement
- CONDITION_PARAMETERS: Table 3-1; 3 independent experiments; read-out: Ki (nM ± SEM) a2A-AR
Answer in nM, number only, no unit symbol.

>>> measured_value("CC[C@@H]1CN2CCc3c([nH]c4cccc(OC)c34)[C@@H]2C[C@@H]1/C(=C\\OC)C(=O)OC [Mitragynine, mitragynine, reference compound]")
4090

Next:
# compound CC[C@@H]1CN2CCc3c([nH]c4ccccc34)[C@@H]2C[C@@H]1/C(=C\OC)C(=O)OC [Corynantheidine, reference compound] ; its Ki = 351

----------
- TESTED_ON: hMOR (Homo sapiens, UniProt P35372)
- Sequence (P35372 whole entry): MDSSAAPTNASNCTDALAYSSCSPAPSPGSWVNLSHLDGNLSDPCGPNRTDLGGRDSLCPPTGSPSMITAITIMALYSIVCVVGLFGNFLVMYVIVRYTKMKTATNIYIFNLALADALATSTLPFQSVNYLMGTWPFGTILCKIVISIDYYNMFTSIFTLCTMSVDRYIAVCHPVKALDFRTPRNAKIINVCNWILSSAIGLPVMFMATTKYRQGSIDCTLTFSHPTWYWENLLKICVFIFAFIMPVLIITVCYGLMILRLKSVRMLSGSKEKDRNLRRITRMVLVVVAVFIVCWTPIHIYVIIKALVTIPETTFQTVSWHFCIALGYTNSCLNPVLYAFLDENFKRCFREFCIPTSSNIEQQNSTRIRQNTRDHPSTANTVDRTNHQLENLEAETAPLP
- ASSAY_PROTOCOL: Radioligand binding assay (Eurofins Cerep), [3H]DAMGO displacement
- CONDITION_PARAMETERS: Table A4, data summary #2; read-out: MOR Ki ± SEM
PROPERTY_NAME: Ki (nM)
Dear colleague, please return just the value in nM, with no unit written.

Known results for compounds:
>>> measured_value("CC[C@@H]1CN2CCc3c([nH]c4cccc(OC)c34)[C@@H]2C[C@@H]1/C(=C\\OC)C(=O)N1CCCCC1")
244
>>> measured_value("CC[C@@H]1CN2CCc3c([nH]c4cccc(OC)c34)[C@@H]2C[C@@H]1/C(=C\\OC)C(=O)N1CCNCC1")
4210
>>> measured_value("CC[C@@H]1CN2CCc3c([nH]c4cccc(OC)c34)[C@@H]2C[C@@H]1/C(=C\\OC)C(=O)N(CC)CC")
1130
>>> measured_value("CCCN(C)C(=O)/C(=C/OC)[C@H]1C[C@H]2c3[nH]c4cccc(OC)c4c3CCN2C[C@H]1CC")
222
>>> measured_value("CC[C@@H]1CN2CCc3c([nH]c4cccc(OC)c34)[C@@H]2C[C@@H]1/C(=C\\OC)C(=O)Nc1ccccc1")
498
>>> measured_value("CC[C@@H]1CN2CCc3c([nH]c4cccc(OC)c34)[C@@H]2C[C@@H]1/C(=C\\OC)C(=O)N1CCOCC1")
1660

Turning now to a further compound:
Kindly note: hMOR (Homo sapiens, UniProt P35372), CC[C@@H]1CN2CCc3c([nH]c4cccc(OC)c34)[C@@H]2C[C@@H]1/C(=C\OC)C(=O)N1CCSCC1 , Ki value reported: 134

Every entry's value here was drawn from patent US20260234147A1.
